Measured values drawn from PubChem BioAssay AID1619 for this set.

This listing pairs molecules with measured inhibition.
# assayTarget: Leucine aminopeptidase (Plasmodium falciparum (isolate 3D7)) (UniProt Q8IL11)
# Sequence (Q8IL11 whole entry, looked up): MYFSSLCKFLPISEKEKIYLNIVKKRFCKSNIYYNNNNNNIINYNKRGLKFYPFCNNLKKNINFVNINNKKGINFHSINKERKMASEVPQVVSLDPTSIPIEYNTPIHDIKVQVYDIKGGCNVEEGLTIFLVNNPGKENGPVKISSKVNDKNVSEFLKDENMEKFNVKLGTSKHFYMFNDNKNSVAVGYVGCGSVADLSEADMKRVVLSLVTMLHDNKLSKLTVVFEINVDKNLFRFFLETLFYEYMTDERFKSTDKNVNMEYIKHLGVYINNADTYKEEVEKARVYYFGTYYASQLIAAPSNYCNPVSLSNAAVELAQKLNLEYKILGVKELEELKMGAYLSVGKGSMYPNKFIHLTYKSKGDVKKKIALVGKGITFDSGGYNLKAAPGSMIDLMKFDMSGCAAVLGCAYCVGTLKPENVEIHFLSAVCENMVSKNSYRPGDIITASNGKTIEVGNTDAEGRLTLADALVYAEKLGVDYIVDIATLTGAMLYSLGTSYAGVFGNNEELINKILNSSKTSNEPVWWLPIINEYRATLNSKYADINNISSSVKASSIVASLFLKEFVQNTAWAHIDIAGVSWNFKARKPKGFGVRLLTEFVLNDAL
# protocol: P. falciparum M17LAP inhibitors, primary screen, biochemical, fluorogenic H-Leu-NHMec substrate, 1536-well (AID 1619);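 further: plate controls were full reaction with DMSO carrier for no effect and no enzyme background for full effect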
# assayConditions: recombinant M17LAP, H-Leu-NHMec fluorogenic kinetic assay; at 30 µM; active compounds read high
Screen size: about 220,000 compounds; about 830 (0.38%) were called active. The list is a sample of the results. Results with a measured potency or affinity are listed apart.

Worked set:
CN(CC(=O)Nc1ccc(N2CCOCC2)cc1)CC(=O)Nc1cccc(C#N)c1 ... 17.1% (inactive)
CCOC(=O)c1cnc(SC)nc1Oc1cccc(NS(=O)(=O)c2ccccc2)c1 ... 12.5% (inactive)

// moving on: another record for inhibition
Note to self: inhibition recorded for Cc1c(N(C(=O)CNC(=O)c2ccccc2)C2(C(=O)NC3CCCCC3)CCCCC2)c(=O)n(-c2ccccc2)n1C was -1.39% (inactive)
